Molecular target: T1, BMP-12 (UniProt Q7Z4P5 322-450, limits assumed)
T1 construct: also called BMP12/GDF7
T1 sequence (looked up): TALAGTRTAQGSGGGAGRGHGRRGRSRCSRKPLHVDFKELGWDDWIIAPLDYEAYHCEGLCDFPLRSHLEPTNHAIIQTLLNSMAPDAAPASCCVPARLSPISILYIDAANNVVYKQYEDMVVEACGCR
Test: peptide resin, filter plate; load 12: 50 mM Tris, 0.1 M NaCl, 20% MPD, pH 8.0
No end group written: not given here.
experimental readout: Flow-through conc (mg/mL)
Respond with the bare value in mg/mL.

binder	experimental readout	unit	readout value
Ac-LYVSDVGWNDWIVK (not fully specified (residue 3); printed as Ac-LYV**SDVGWNDWIVK; also: ** after V3 not explained) [BMP2 C-trunc_2 peptide 746]	Flow-through conc	mg/mL	0.486
Ac-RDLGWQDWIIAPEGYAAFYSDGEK [BMP5 peptide 748]	Flow-through conc	mg/mL	0.383

// query Supply recorded Flow-through conc for Ac-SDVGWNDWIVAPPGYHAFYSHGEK [BMP2 N-trun 1S peptide 751] here.
// result 0.411

This collection of values is drawn from patent US7754689B2.
